target: human ether-à-go-go-related gene (hERG) potassium channel (human, UniProt Q12809); test: primary screen, population patch clamp on CHO cells stably expressing hERG; higher = less effect of the substance;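 further: peak tail current of the secondary pulse compared with the same well before compound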
Sequence (Q12809 whole entry, looked up): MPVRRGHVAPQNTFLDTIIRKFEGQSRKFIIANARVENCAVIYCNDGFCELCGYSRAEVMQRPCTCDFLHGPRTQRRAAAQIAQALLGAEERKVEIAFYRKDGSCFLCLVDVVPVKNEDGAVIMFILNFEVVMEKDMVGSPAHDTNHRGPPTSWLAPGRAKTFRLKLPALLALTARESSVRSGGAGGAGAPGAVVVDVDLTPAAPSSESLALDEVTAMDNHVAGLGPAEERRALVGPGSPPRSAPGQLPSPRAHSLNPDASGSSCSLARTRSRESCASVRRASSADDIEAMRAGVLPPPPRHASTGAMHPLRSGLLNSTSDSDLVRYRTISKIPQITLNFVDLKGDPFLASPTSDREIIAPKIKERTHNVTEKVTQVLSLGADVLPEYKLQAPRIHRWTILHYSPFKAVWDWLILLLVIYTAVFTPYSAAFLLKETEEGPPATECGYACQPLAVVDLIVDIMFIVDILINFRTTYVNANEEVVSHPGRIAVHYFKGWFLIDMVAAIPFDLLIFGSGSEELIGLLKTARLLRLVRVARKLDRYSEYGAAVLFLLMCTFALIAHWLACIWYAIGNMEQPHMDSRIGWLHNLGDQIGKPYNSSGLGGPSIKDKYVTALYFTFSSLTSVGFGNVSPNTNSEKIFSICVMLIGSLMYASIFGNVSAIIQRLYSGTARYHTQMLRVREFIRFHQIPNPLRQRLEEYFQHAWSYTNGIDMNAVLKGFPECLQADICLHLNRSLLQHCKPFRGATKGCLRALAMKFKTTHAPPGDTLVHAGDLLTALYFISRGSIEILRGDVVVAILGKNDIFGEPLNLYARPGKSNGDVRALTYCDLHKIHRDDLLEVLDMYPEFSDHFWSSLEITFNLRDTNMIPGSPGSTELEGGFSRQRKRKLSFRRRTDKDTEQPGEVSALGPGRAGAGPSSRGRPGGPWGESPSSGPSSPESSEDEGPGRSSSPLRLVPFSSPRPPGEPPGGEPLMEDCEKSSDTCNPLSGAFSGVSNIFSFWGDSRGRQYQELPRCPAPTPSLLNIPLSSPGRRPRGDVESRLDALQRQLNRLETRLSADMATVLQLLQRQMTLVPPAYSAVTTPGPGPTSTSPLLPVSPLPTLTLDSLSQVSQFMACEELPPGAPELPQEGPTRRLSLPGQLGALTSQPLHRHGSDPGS
About 14,000 (4.5%) of roughly 310,000 compounds showed an effect of 50% or more. The effect is printed as a negative number. Only a selection was taken, and strong results are over-represented in it overall.
Recorded endpoint: hERG current change (%, negative = inhibition) at 10uM (%)
Only the number, expressed in %, is required.

CCN(CC)C(=O)Cn1cnc2sc(C(=O)Nc3cc(OC)c(OC)c(OC)c3)c(C)c2c1=O: 14.5

Measured hERG current change (%, negative = inhibition) at 10uM, COc1cc(C(=O)N2CCN(c3ccccc3Cl)CC2)ccc1OCC(=O)N1CCOCC1 : -28.6

# hERG current change (%, negative = inhibition) at 10uM of CC(=O)c1ccc(N2CCN(C(=O)COc3ccc(F)cc3)CC2)c(F)c1 = -71.5

Item: COc1ccc(S(=O)(=O)Nc2ccccc2C(=O)Nc2nc(-c3ccc(F)cc3)cs2)cc1OC | hERG current change (%, negative = inhibition) at 10uM: -51.7

What the record says about O=C(O)c1cccc2c(-c3ccccc3)c(-c3ccccc3)[nH]c12 : hERG current change (%, negative = inhibition) at 10uM is 18.5

###

molecular target: human ether-à-go-go-related gene (hERG) potassium channel (human, UniProt Q12809); experiment: primary screen, population patch clamp on CHO cells stably expressing hERG; higher = less effect of the substance;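 further: peak tail current of the secondary pulse compared with the same well before compound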
Screen size: about 310,000 compounds; about 14,000 (4.5%) showed an effect of 50% or more. Effects have a minus sign here. Only a selection was taken, and strong results are over-represented in it overall.
Recorded hERG current change (%, negative = inhibition) at 10uM by entry
The answer is to be given in %; state only the numeric part.

# count of solved cases: 5
COC(=O)c1ccccc1NC(=O)CN1CCCCC1: 9.99
COc1ccc(NC(=O)CN2CCN(C(=O)c3ccco3)CC2)c(OC)c1: -37.4
O=C(CN1CCN(C(=O)c2ccco2)CC1)Nc1ccccc1: -13.9
CC1=C(C#N)C(NC(=O)C(C)(C)C)(C(F)(F)F)C(=O)N1 (stereo not shown): 1.3
COC(=O)c1ccccc1NC(=O)CN1CCCCCC1: 8

So for Cc1cccc(OCC(=O)N/N=C\c2cc3c(cc2[N+](=O)[O-])OCO3)c1C , the logged hERG current change (%, negative = inhibition) at 10uM turned out to be -7.82

Notebook: Cc1ccc2ncnc(Oc3ncccc3NC(=O)C(C)(C)C)c2c1 , hERG current change (%, negative = inhibition) at 10uM read as 13.8

The value of hERG current change (%, negative = inhibition) at 10uM measured for the compound COC(=O)c1ccc(C(=O)OC)c(NS(C)(=O)=O)c1 turned out to be -1.73

Entry under test: COc1ccccc1NC(=O)c1ccc(NC(=O)CN2CCN(C(=O)c3ccco3)CC2)cc1 . Its hERG current change (%, negative = inhibition) at 10uM was -72.9

hERG current change (%, negative = inhibition) at 10uM reading for COC(=O)c1ccccc1NC(=O)CN1CCN(Cc2ccccc2)CC1 : -74.5

###

biological target: human ether-à-go-go-related gene (hERG) potassium channel (human, UniProt Q12809); experiment: primary screen, population patch clamp on CHO cells stably expressing hERG; higher = less effect of the substance;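 further: peak tail current of the secondary pulse compared with the same well before compound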
The campaign covered roughly 310,000 compounds. About 14,000 (4.5%) showed an effect of 50% or more. The effect is printed as a negative number. This is one part of a sample in which strong results are shown more often than they occur.
Param threshold (-20%) applies to hERG current change (%, negative = inhibition) at 10uM; output YES when value >= threshold, NO when value < threshold.

Here are 9 compounds together with their reported answers.
COc1ccc(F)cc1S(=O)(=O)Nc1ccc2c(c1)OCO2: YES
NC(=S)N1CCCc2ccccc21: YES
O=C(NNC(=O)C1CC(=O)N(Cc2ccccc2)C1)c1ccc(F)cc1 (stereo not shown): YES
O=C(CN(Cc1ccccc1)S(=O)(=O)c1ccc(F)cc1)NCc1ccncc1: NO
COc1ccccc1C(=O)Nc1nnc(S(=O)(=O)N2CCCCCC2)s1: YES
O=C(CN(Cc1ccc(Br)cc1)S(=O)(=O)c1ccccc1)NCc1ccncc1: NO
O=C(CN(Cc1ccc(Br)cc1)S(=O)(=O)c1ccccc1)NCc1cccnc1: YES
CCOc1ccc(CN2CCNC(=O)C2CC(=O)NCc2cc(C)n(C)n2)cc1 (stereo not shown): YES
COC(=O)c1sccc1NC(=O)c1c(-c2ccccc2)noc1C: NO

Moving on to another compound below.
Kindly determine if hERG current change (%, negative = inhibition) at 10uM recorded for CCOC(=O)N1CCN(C(=O)c2cccc(NC3=NC4CS(=O)(=O)CC4S3)c2)CC1 (stereo not shown) is above or exactly -20%.
YES

Provenance of the data: paper PMC4336329
